test system: PF3D7_0420300 AP2 domain 1 (GST-tagged); experiment: gcPBM binding intensity (ln(normalized median fluorescence intensity)); higher = stronger DNA binding
In all, about 25,000 sequences were measured (“ln(normalized median fluorescence intensity)”: median about 9.3, highest 2% from about 10 on). Shown is part of a subset that was picked to be rich in the highest values.
PARAMETER MEASURED: gcPBM binding intensity (ln)
Give only the figure.

Known results for sequences:
• AAAAAAAACAGACACACACACATACACATACATACA [CACACA_site2857] = 10.2
• AAAAAAAAAAAAAAATGTACATATATATATATATTA [XGTACX_site7330] = 8.98
• ATTTAATACAAATACACACACAAATAAATACAGATA [CACACA_site5956] = 10.2

[in] Need gcPBM binding intensity (ln) of TATAGTGATATATACACACACTTGTCTTGTAAAAAT [CACACA_site6594] , thanks.
[out] 9.53

[in] Proceed to TACATACACAGACACACACACATATATATATATATA [CACACA_site3557]
[out] 9.89

====

The entries below come with measured gcPBM binding intensity (ln) values attached.
tested on: PF3D7_0420300 AP2 domain 1 (GST-tagged); test: gcPBM binding intensity (ln(normalized median fluorescence intensity)); higher = stronger DNA binding
Over roughly 25,000 sequences, “ln(normalized median fluorescence intensity)” has its median near 9.3; the highest 2% begin near 10. For the sample, the highest values were picked, then their nearest neighbours and some sequences at random.
In your answer, state the number alone without any accompanying words.

As a guide, the following entries are already answered.
• AATATGTCTTAAAAAAGTACATAAATTTTAACTTCA [XGTACX_site6670] = 8.84
• TACACAGACGGACACACACACACACTAGAAAAAAAA [CACACA_site4435] = 10
• AAATATAAATGGTAATACACATACACACACACATAC [XGTACX_negctrl_site459] = 10.2
• TATTAATACGGACACACACACACACTAGATAAAATA [CACACA_site4295] = 10.2
• TTTTTATTATAAGGTCGTACAATTGTAATTATTGTA [XGTACX_site1413] = 9.23

[in] # input sequence: ATTATAAATAAAATATGTACATATGTATAAATACAT [XGTACX_site4002] ; wanted: its gcPBM binding intensity (ln)
[out] 9.21

[in] Could you do the same for GTTTATATATTATAAAGTACATATGAATTTAATAAT [XGTACX_site3601] , please?
[out] 9.01

[in] Now consider ACATATAAAATATATACACACATATAAATACATTAA [CACACA_site3867] and answer again.
[out] 9.75

[in] Also need AAATATAAAAAATATACACACATATATAATATATAT [CACACA_site2963] , thanks.
[out] 9.55

[in] Now try AACAAATACGGACACACACACACACTAGAAAAAAAA [CACACA_site4442] .
[out] 10.2

[in] // next record AGATATCTTGTGAAATAAAAAAAATAATTGCTTATA [CACACA_negctrl_site798]
[out] 8.94

[in] Try TTCGGAAAAATTAAAGCACACAAAAAAAAATAAAAA [CACACA_site8296] next.
[out] 9.45

[in] And what about the sequence AAAAAAAAAAAAAGTACACACATACATATAAATATA [CACACA_site8533] ?
[out] 9.72

[in] Okay, and ACATATACAAGACACACACACAACGTTTTAATAAAT [CACACA_site7017] ?
[out] 10.2

[in] Moving on to the next sequence: AAAAAAAAAAAGTACACACATACATATAAATATATA [CACACA_site1809]
[out] 9.46

[in] Please do the same for TTTACAAAAAATTATACACACACGTACAGATAAATA [CACACA_site4678] as well.
[out] 9.89

====

Listing: gcPBM binding intensity (ln) of selected sequences
test system: PF3D7_0420300 AP2 domain 1 (GST-tagged); test: gcPBM binding intensity (ln(normalized median fluorescence intensity)); higher = stronger DNA binding
In all, about 25,000 sequences were measured (“ln(normalized median fluorescence intensity)”: median about 9.3, highest 2% from about 10 on). Shown is part of a subset that was picked to be rich in the highest values.
Response field accepts a number only; no unit should be typed.

Past entries and their recorded results:
* TTTGGCTAGTCAAGTTGTACAAAAAAAAAAAAAAAA [XGTACX_site8382] | 8.58
* ATTCTAAATATCAGTGCACACATTTCTACGCAAAGT [CACACA_site474] | 9.36

Now look at this entry.
[in] API: value(readout= gcPBM binding intensity (ln), system= PF3D7_0420300 AP2 domain 1 (GST-tagged), query= AAAAAGGAGAAACACACACACACACCCATATATATA [CACACA_site905] )
[out] 10.2

====

tested on: PF3D7_0420300 AP2 domain 1 (GST-tagged); assay: gcPBM binding intensity (ln(normalized median fluorescence intensity)); higher = stronger DNA binding
Over roughly 25,000 sequences, “ln(normalized median fluorescence intensity)” has its median near 9.3; the highest 2% begin near 10. The entries come from a sample that favours the highest values as a whole.
sequences and their reported gcPBM binding intensity (ln)
In your answer, state the number alone without any accompanying words.

Study these solved cases before continuing.
* AGAAAGGATATTATATGTACATATCTTTGTATTTTT [XGTACX_site5040] | 9.36
* CATATACGCAAACACACACACATATATATATATATA [CACACA_site501] | 10
* ATAAATGACAAATTAACACACATATATTATAGATAT [CACACA_site7770] | 9.68
* TTTTCAAAATAATATTATATCAAATGCTAAAAAGAA [TGCATGCA_negctrl_site588] | 8.96
* CAAAAAAACAAACACACACACACACCCATATATATA [CACACA_site3653] | 10.2

[in] # input sequence: ATATTAAAAATATATACACACATATATATAAATATA [CACACA_site2257] ; wanted: its gcPBM binding intensity (ln)
[out] 9.37

[in] Proceed to AAAACACCCAAACACACACACACATATATATATATA [CACACA_site9119]
[out] 10.1

[in] Now consider AAAGACGTTTATAAATGTACATACACTTTAAAAGTT [XGTACX_site8753] .
[out] 9.08

[in] Same for GATATTAAAATATGTAGTACACATATTATATCATAT [XGTACX_site4167]
[out] 9.18

[in] Also need AAATAATTTGTTGACACACACACACCCATACATATA [CACACA_site2285] , thanks.
[out] 10.2

[in] Another sequence to look at: TTTTTAATAACACTTTTGAAAAATAAAATAAAATAA [CACACA_negctrl_site821]
[out] 8.8

[in] Moving on to CATATTAAAAATACATGTACATATATATTTAATATA [XGTACX_site8580]
[out] 9.08

[in] Now the same for AAATAATTTGTTGACACACACACACCCATACAGATA [CACACA_site5291]
[out] 10.1

[in] Same question for TTATCCTTGTAACAATGTACACATTATTTAATACTT [XGTACX_site1830] please.
[out] 9.29

[in] How about this sequence: ATATATGATGTAAAAGCACACATATATATATATATA [CACACA_site9330]
[out] 9.21

[in] Repeat with TTTATTTTATCATTTGCACACGCACCCAGACATAAA [CACACA_site4347]
[out] 9.39

[in] Now the same for GTGTCAAATTTTATAACACACAAAAGGTTATATAAG [CACACA_site7839]
[out] 9.28

[in] Query AAAGAAATAAGGTGCACACATATACAGATATATATA [CACACA_site4399] next
[out] 9.66

[in] Now give it for TATATACGCATGCGCACACACAAGTGGGAAATTTGG [CACACA_site1785] too.
[out] 9.52

[in] Now this one: CGTTTTCTATATCATTGTACATATTCATGTGTAAAT [XGTACX_site2741]
[out] 9.24

[in] Another sequence to look at: ATACATATATACATATGTACATATATATATATATAT [XGTACX_site8206]
[out] 9.3

====

Listing of entries alongside the reported gcPBM binding intensity (ln).
system: PF3D7_0420300 AP2 domain 1 (GST-tagged); experiment: gcPBM binding intensity (ln(normalized median fluorescence intensity)); higher = stronger DNA binding
Over roughly 25,000 sequences, “ln(normalized median fluorescence intensity)” has its median near 9.3; the highest 2% begin near 10. The list comes from a sample in which the highest values are over-represented; it also holds close analogues and randomly drawn sequences.
Write no unit; give the number alone.

- AAAAAAAATTAAATAAATAAATATACACATATATAT [GTGCAC_negctrl_site394]: 9.26
- TACATACACAGACACACACACATATAAATATAAATA [CACACA_site7641]: 9.95
- AATACATACAGACACACACACACATATAAATAAATA [CACACA_site7642]: 10.2
- AATATAAGCAAATACACACACACATATAAATATGTA [CACACA_site7741]: 10.2

// below: gcPBM binding intensity (ln) requested for another sequence
[in] # value lookup — system PF3D7_0420300 AP2 domain 1 (GST-tagged), readout gcPBM binding intensity (ln), item TACATATATTATTGCACACATATAAAATACCCCCAA [CACACA_site3895]
[out] 9.82
